Taken from paper PMC7156458.

tgt: Aβ42 (Homo sapiens)
Sequence (P05067 672-713): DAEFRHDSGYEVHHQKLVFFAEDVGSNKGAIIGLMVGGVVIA
testDetails: Th-T (thioflavin-T) assay of Aβ42 aggregation
Assay type: biochemical
testSettings: time-course reading M113; Supplementary Fig. 47 source data
Values of Th-T fluorescence, mean of three wells greater than or equal to 3 map to 1 (yes); values below map to 0 (no).

| molecule | label |
| --- | --- |
| C=C1CCC2C(C)(CCC=C(C)C)C(O)CCC2(C)C1Cc1c(OC)oc(C)c(C)c1=O (centres unmarked) [Compound 11] | 1 (yes) |
| C=C1CC[C@H]2[C@]3(C)C[C@@H](C=C(C)C)O[C@H]3CC[C@]2(C)[C@@H]1Cc1c(O)c(C)c(C)oc1=O | 0 (no) |
| C=C1CCC2C(C)(CC(=O)C=C(C)C)C(O)CCC2(C)C1Cc1c(O)c(C)c(C)oc1=O (centres unmarked) | 1 (yes) |
| C=C1CCC2C(C)(CCC=C(C)C)C(O)CCC2(C)C1Cc1c(O)c(C)c(C)oc1=O (centres unmarked) [Compound 4] | 0 (no) |

I'd appreciate it if you could say whether `C=C1CC[C@@H]2[C@](C)(CC[C@H]3O[C@H](C=C(C)C)C[C@@]23C)[C@@H]1Cc1c(OC)oc(CO)c(C(=O)OC)c1=O` has Th-T fluorescence, mean of three wells at least equal to 3.
0 (no)

Entry C=C1CCC2C(C)(CCC=C(C)C)C(=O)CCC2(C)C1Cc1c(O)c(C)c(C)oc1=O (centres unmarked) : is its Th-T fluorescence, mean of three wells no less than 3?
0 (no)

Say whether C=C1CCC2C(C)(CC(=O)C=C(C)C)C(O)CCC2(C)C1Cc1c(OC)oc(CO)c(C)c1=O (centres unmarked) shows Th-T fluorescence, mean of three wells of 3 or more.
1 (yes)

Can C=C1CCC2C(C)(CCC=C(C)C)C(O)CCC2(C)C1Cc1c(OC)oc(C)c(C)c1=O (centres unmarked) [Compound 15, viridoxin A hydrolysate] be said to have Th-T fluorescence, mean of three wells at or above 3?
1 (yes)
